# speed of sound per record follows
settings: 298.15 K; 101.33 kPa; Liquid; Pulse-echo method
± gives the expanded uncertainty stated by the source.

Reference set (2 entries):
Cc1ccccc1C [1,2-dimethylbenzene] = 1344 ± 2 m/s
Cc1ccccc1 [toluene] = 1305 ± 5 m/s

Q: Using known records, supply speed of sound for c1ccccc1 [benzene]
Ans: 1298 ± 5 m/s

Q: Using known records, supply speed of sound for Cc1ccc(C)cc1 [1,4-dimethylbenzene]
Ans: 1310 ± 2 m/s

###

# mass density per record follows
settings: 298.15 K; 101.33 kPa; Liquid; Pycnometric method
Numbers after ± are expanded uncertainties.

Q: Using known records, supply mass density for Cc1ccccc1C
Ans: 875.9 ± 0.46 kg/m3

Q: Using known records, supply mass density for c1ccccc1
Ans: 873.64 ± 5.5 kg/m3

Q: Using known records, supply mass density for Cc1ccc(C)cc1
Ans: 858.63 ± 0.45 kg/m3

Q: Using known records, supply mass density for Cc1ccccc1N
Ans: 994.28 ± 0.57 kg/m3

Q: Using known records, supply mass density for Cc1ccccc1
Ans: 862.17 ± 5.4 kg/m3

These entries and their values trace back to the NIST ThermoML archive (doi:10.1021/je900237e).
